Test system: Mus musculus
Experiment: Evaluated for seizure threshold test at a dose 25 mg/kg &MST is the metrazole seizure threshold to persistent clonus; I = Inactive.
Format: functional, organism-based
Design: dose 25 mg/kg
Recorded Endpoint: Change

• Cc1cc2c(-c3ccccc3F)ncnc2c(C#N)c1C = Not significant
• CC1N=CNc2c1cc(-c1ccccc1)c(-c1ccccc1)c2C#N (stereo not given) = Not significant
• Cc1cc2c(-c3ccccc3F)nc(O)nc2c(C#N)c1C = Not significant
• Cc1cc(C(=O)c2ccccc2)c(N)c(C#N)c1C = Not significant
• Cc1cc(C(=O)c2ccccc2)c(O)c(C#N)c1C = Not significant
• Cc1cc2c(-c3ccccc3)nc(O)nc2c(C#N)c1C = Not significant
• Cc1cc2c(-c3ccccc3)ncnc2c(C#N)c1C = Not significant
• Cc1cc2c(C)nc(O)nc2c(C#N)c1C = Not significant
• Cc1cc(C(=O)c2ccccc2Cl)c(N)c(C#N)c1C = Not significant
• Cc1cc2c(c(C#N)c1C)NC=NC2C1CC1 (stereo not given) = Not significant

====

Biological target: GABA-A receptor; anion channel
Assay: Binding affinity for umolar GABA-A central benzodiazepine receptor
Recorded Endpoint: Ki (µM)

* O=C1CN=C(c2ccccc2)c2cc(Cl)ccc2N1 | 73
* O=C1NC(=O)C(c2ccccc2)(c2ccccc2)N1 | 155

====

Test: Compound was determined in rotarod test and expressed as TD50
Assay type: ADME, organism-based
Details: mouse, in vivo
Hi! Could you tag entries with TD50 below 70 mg/kg as fulfilled, and those at or above as not fulfilled? Much appreciated.

• Cc1cc(C(=O)C2CC2)c(N)c(C#N)c1C = not fulfilled
• Cc1cc2c(c(C#N)c1C)NC(=O)NC2c1ccccc1 (configuration not stated) = not fulfilled
• CC(=O)c1cc(C)c(C)c(C#N)c1NC(=O)CBr = not fulfilled
• Cc1cc2c(c(C#N)c1C)NC(=O)CN=C2c1ccccc1F = not fulfilled
• Cc1cc2c(C)ncnc2c(C#N)c1C = fulfilled
• Cc1cc2c(c(C#N)c1C)NC(=O)CN=C2C1CC1 = not fulfilled
• CC(=O)c1cc(C)c(C)c(C#N)c1N = not fulfilled
• CC(=O)c1cc(-c2ccccc2)c(-c2ccccc2)c(C#N)c1N = not fulfilled
• Cc1cc2c(c(C#N)c1C)NC(=O)CN=C2c1ccccc1 = not fulfilled
• Cc1cc2c(c(C#N)c1C)NC=NC2C1CCCCC1 (configuration not stated) = not fulfilled
• CN1C(=O)CN=C(c2ccccc2)c2cc(Cl)ccc21 = fulfilled
• Cc1cc2c(c(C#N)c1C)NC(=O)NC2C (configuration not stated) = not fulfilled
• Cc1cc2c(c(C#N)c1C)NC=NC2C (configuration not stated) = fulfilled
• Cc1cc2c(C3CCCCC3)nc(O)nc2c(C#N)c1C = not fulfilled
• Cc1cc(C(=O)c2ccccc2)c(NC(=O)CBr)c(C#N)c1C = not fulfilled
• Cc1cc(C(=O)C2CCCCC2)c(N)c(C#N)c1C = not fulfilled
